molecular target: BaF3 cell lines stably transfected with kinase EGFR Del/T790M (Homo sapiens, UniProt P00533, T790M, cells depend on it, form not given); test: Growth inhibition of BaF3 cell line stably transfected with kinase EGFR Del/T790M (MTS); type: cell-based; conditions: 48 h, read-out: growth inhibitory activity IC50, Del/T790M
Sequence (P00533 with tags, fused parts or gaps DEL746-750/T790M, form open): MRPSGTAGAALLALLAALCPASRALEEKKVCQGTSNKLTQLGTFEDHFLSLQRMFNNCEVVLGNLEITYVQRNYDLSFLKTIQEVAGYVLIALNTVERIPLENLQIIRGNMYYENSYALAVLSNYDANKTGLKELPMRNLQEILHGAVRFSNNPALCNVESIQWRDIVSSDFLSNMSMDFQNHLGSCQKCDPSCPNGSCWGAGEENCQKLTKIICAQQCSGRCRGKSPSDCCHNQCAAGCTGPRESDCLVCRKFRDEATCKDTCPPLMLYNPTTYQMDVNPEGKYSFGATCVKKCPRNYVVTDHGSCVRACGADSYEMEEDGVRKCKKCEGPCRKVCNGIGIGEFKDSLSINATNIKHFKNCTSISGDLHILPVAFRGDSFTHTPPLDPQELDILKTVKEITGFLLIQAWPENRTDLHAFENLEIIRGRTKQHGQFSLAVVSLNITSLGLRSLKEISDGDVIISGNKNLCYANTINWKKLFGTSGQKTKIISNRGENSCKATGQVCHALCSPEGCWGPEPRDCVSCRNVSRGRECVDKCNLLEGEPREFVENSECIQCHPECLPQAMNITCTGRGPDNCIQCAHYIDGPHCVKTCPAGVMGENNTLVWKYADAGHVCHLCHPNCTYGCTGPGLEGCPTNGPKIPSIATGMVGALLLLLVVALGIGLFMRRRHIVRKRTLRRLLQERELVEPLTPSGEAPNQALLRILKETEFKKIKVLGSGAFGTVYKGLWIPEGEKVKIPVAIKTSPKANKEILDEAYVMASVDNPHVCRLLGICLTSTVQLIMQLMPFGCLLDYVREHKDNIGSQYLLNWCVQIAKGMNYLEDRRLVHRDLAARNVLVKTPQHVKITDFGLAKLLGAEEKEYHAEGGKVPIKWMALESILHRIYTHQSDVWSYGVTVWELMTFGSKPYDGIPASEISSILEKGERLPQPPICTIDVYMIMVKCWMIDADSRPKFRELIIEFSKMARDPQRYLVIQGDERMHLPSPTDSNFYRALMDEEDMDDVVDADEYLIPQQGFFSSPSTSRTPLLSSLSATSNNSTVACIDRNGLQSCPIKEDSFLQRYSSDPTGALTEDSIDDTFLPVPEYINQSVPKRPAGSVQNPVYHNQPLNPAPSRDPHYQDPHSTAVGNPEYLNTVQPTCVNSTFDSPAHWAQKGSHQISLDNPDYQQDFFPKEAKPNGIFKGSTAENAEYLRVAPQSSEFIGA
Recorded metric: GI50

Some molecules with known GI50 results, for comparison:
>>> value_observed("C=Cc1cnc(Nc2cc(CC)c(N3CCC(N4CCN(C)CC4)CC3)nc2OC)nc1Nc1ccc2nccnc2c1NS(C)(=O)=O")
"50 to 500 nM"
>>> value_observed("C=Cc1cnc(Nc2cc(CC)c(N3CCN(C)CC3)cc2OC)nc1Nc1ccc2nccnc2c1P(C)(C)=O")
"≤ 50 nM"
>>> value_observed("C=Cc1cnc(Nc2cc(CC)c(N3CCC(N4CCN(C)CC4)CC3)cc2OC(F)(F)F)nc1Nc1ccc2nccnc2c1S(=O)(=O)NC")
"50 to 500 nM"
>>> value_observed("C=Cc1cnc(Nc2cc(CC)c(N3CCN(C)CC3)cc2OC)nc1Nc1ccc2nccnc2c1NS(C)(=O)=O")
"≤ 50 nM"

For the molecule C=Cc1cnc(Nc2cc(CC)c(N3CCC(N(C)C)CC3)cc2OC)nc1Nc1ccc2nccnc2c1S(C)(=O)=O , what GI50 is on record? 50 to 500 nM

Which GI50 is reported for this molecule? C=Cc1cnc(Nc2cnn(C)c2)nc1Nc1ccc2nccnc2c1N(C)S(C)(=O)=O 50 to 500 nM
